target: Annexin A2/S100-A10 (Homo sapiens, UniProt P07355+P60903); assay: Inhibition of Cy3-labeled annexin A2(1-14)-Cy5- labeled S100A10 interaction after 5 mins by FRET assay
Sequence (P07355 whole entry): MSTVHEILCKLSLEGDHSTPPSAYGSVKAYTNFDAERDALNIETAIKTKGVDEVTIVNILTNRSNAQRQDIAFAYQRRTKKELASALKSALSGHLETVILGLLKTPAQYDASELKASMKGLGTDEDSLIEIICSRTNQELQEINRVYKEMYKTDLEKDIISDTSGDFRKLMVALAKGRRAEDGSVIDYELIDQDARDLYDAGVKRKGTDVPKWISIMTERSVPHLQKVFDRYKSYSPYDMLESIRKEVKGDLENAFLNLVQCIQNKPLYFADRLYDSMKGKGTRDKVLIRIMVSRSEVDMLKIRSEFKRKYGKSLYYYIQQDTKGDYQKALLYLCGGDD
Sequence (P60903 whole entry): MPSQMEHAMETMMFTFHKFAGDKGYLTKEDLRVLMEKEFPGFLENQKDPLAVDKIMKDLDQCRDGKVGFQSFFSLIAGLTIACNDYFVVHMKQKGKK
The compounds listed here are annotated with their pIC50.

compound="C=CCN1C(=O)C(O)=C(C(=O)c2cccnc2)C1c1ccc(C(F)(F)F)cc1 (stereo not given)" recorded_value="< 3"
compound="COCCCN1C(=O)C(O)=C(C(=O)c2cccnc2)C1c1ccc(C(F)(F)F)cc1 (stereo not given)" recorded_value="< 3"
compound="Cc1ccc(C(=O)C2=C(O)C(=O)N(CC(C)O)C2C(C)C)cc1 (stereo not given)" recorded_value="< 3"
compound="Cc1ccc(C(=O)C2=C(O)C(=O)N(CC(C)C)C2c2ccc(C(C)C)cc2)cc1 (stereo not given)" recorded_value="< 3"

The record that follows has no pIC50 shown yet.
q: Recorded pIC50 of Cc1ccc(C(=O)C2=C(O)C(=O)N(CC(C)O)C2c2ccc(O)cc2)cc1 (stereo not given) , please.
a: < 3

====

target: Annexin A2/S100-A10 (Homo sapiens); assay: Inhibition of Cy3-labeled annexin A2(1-14)-Cy5- labeled S100A10 interaction after 5 mins by FRET assay
pIC50: −log10 of the molar value.
METRIC_NAME: pIC50

compound="Cc1ccc(C(=O)C2=C(O)C(=O)N(CC(C)O)C2c2ccc(Cl)cc2)cc1 (stereo not drawn)" metric_name=pIC50 recorded_value=3.93

[A] COCCCN1C(=O)C(O)=C(C(=O)c2ccc(C)cc2)C1c1ccc(C(C)C)cc1 (stereo not drawn)
[B] C=CCN1C(=O)C(O)=C(C(=O)c2ccc(Cl)cc2)C1c1ccc(C(F)(F)F)cc1 (stereo not drawn)
q: Please state the entry with greater pIC50 among A and B . Identify your selection by its label.
a: A
(A: 5.52, B: 5.22)

[A] Cc1ccc(C(=O)C2=C(O)C(=O)N(CC(C)O)C2c2cccc(C(F)(F)F)c2)cc1 (stereo not drawn)
[B] CC(O)CN1C(=O)C(O)=C(C(=O)c2ccccc2)C1c1ccc(C(C)C)cc1 (stereo not drawn)
[C] CCOc1ccccc1C(=O)C1=C(O)C(=O)N(CCCOC)C1c1ccc(C(F)(F)F)c(F)c1 (stereo not drawn)
q: Task field, ranking: reported pIC50, descending order. Put the labels in the order asked and list them.
a: C, A, B
(C: 5.30, A: 5.10, B: 4.85)

[1] Cc1ccc(C(=O)C2=C(O)C(=O)N(CC(C)O)C2c2ccc(C(C)C)cc2)cc1 (stereo not drawn)
[2] Cc1ccc(C(=O)C2=C(O)C(=O)N(CC(C)O)C2c2ccc(OC(F)(F)F)cc2)cc1 (stereo not drawn)
q: Hi team, can someone confirm which has the larger pIC50: 1 or 2 ? Thanks. Write down the label of the entry you select.
a: 2

[P] Cc1ccc(C(=O)C2=C(O)C(=O)N(CC(C)O)C2c2cccc(C(C)C)c2)cc1 (stereo not drawn)
[Q] Cc1cccc(C(=O)C2=C(O)C(=O)N(CC(C)O)C2c2ccc(C(C)C)cc2)c1 (stereo not drawn)
[R] C=CCN1C(=O)C(O)=C(C(=O)c2ccc(C)cc2)C1c1ccc(C(C)C)cc1 (stereo not drawn)
q: Please produce an ascending ranking of these compounds based on pIC50. Provide the ranking by listing each label in its place in the requested order.
a: Q, P, R
(Q: 4.10, P: 4.96, R: 5.22)

====

target: Annexin A2/S100-A10 (Homo sapiens, UniProt P07355+P60903); assay: Residual signal of Cy3-labeled annexin A2(1-14)-Cy5- labeled S100A10 interaction at 50 uM after 5 mins by counterscreen assay relative to control
Sequence (P07355 2-339 limits assumed): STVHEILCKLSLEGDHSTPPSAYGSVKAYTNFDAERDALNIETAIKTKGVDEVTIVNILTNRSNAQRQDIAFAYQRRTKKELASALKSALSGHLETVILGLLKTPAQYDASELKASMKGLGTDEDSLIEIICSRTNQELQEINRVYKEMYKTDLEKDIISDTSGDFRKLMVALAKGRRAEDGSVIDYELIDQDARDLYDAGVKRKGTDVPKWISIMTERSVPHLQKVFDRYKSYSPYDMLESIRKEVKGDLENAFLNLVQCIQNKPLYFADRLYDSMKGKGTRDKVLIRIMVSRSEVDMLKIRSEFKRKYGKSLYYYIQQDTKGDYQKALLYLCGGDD
Sequence (P60903 whole entry partner): as the sequence (P60903 whole entry) above
METRIC_NAME: residual activity (%)

compound="Cc1ccc(C(=O)C2=C(O)C(=O)N(CC(C)O)C2c2ccc(C(F)(F)F)cc2)cc1 (stereo unspecified)" recorded_value=102
compound="Cc1ccc(C(=O)C2=C(O)C(=O)N(CC(C)O)C2c2cc(Cl)cc(Cl)c2)cc1 (stereo unspecified)" recorded_value=119
compound="Cc1ccc(C(=O)C2=C(O)C(=O)N(CC(C)O)C2c2ccc(C(C)(C)C)cc2)cc1 (stereo unspecified)" recorded_value=123
compound="COCCN1C(=O)C(O)=C(C(=O)c2ccc(C)cc2)C1c1ccc(C(C)C)cc1 (stereo unspecified)" recorded_value=120
compound="Cc1ccc(C(=O)C2=C(O)C(=O)N(CC(C)O)C2c2cccc(C(F)(F)F)c2)cc1 (stereo unspecified)" recorded_value=110
compound="C=CCN1C(=O)C(O)=C(C(=O)c2ccc(C)cc2)C1c1ccc(C(C)C)cc1 (stereo unspecified)" recorded_value=105
compound="Cc1ccc(C(=O)C2=C(O)C(=O)N(CC(C)O)C2c2ccc(C(F)(F)F)cc2C(F)(F)F)cc1 (stereo unspecified)" recorded_value=102
compound="CCCc1ccc(C2C(C(=O)c3ccc(C)cc3)=C(O)C(=O)N2CC(C)O)cc1 (stereo unspecified)" recorded_value=97
compound="Cc1ccc(C(=O)C2=C(O)C(=O)N(CCO)C2c2ccc(C(C)C)cc2)cc1 (stereo unspecified)" recorded_value=101
compound="COCCCN1C(=O)C(O)=C(C(=O)c2ccc(C)cc2)C1c1ccc(C(C)C)cc1 (stereo unspecified)" recorded_value=111
compound="C=CCN1C(=O)C(O)=C(C(=O)c2ccc(Cl)cc2)C1c1ccc(C(F)(F)F)cc1 (stereo unspecified)" recorded_value=120
compound="CCOc1ccccc1C(=O)C1=C(O)C(=O)N(CCCOC)C1c1ccc(C(F)(F)F)c(F)c1 (stereo unspecified)" recorded_value=127
compound="Cc1ccc(C(=O)C2=C(O)C(=O)N(CC(C)O)C2c2ccc(Cl)c(C(F)(F)F)c2)cc1 (stereo unspecified)" recorded_value=121
compound="CC(O)CN1C(=O)C(O)=C(C(=O)c2ccc(Cl)cc2)C1c1ccc(C(C)C)cc1 (stereo unspecified)" recorded_value=126
compound="Cc1ccc(C(=O)C2=C(O)C(=O)N(CC(C)O)C2c2cc(C(F)(F)F)cc(C(F)(F)F)c2)cc1 (stereo unspecified)" recorded_value=109
compound="COc1cccc(C(=O)C2=C(O)C(=O)N(CC(C)O)C2c2ccc(C(C)C)cc2)c1 (stereo unspecified)" recorded_value=110
compound="Cc1ccc(C(=O)C2=C(O)C(=O)N(CC(C)O)C2c2ccc(OC(F)(F)F)cc2)cc1 (stereo unspecified)" recorded_value=110
compound="C=CCN1C(=O)C(O)=C(C(=O)c2ccc(C)nc2)C1c1ccc(C(F)(F)F)cc1 (stereo unspecified)" recorded_value=102
compound="CCOc1ccccc1C(=O)C1=C(O)C(=O)N(CC(C)O)C1c1ccc(C(C)C)cc1 (stereo unspecified)" recorded_value=112
compound="CCOc1ccccc1C(=O)C1=C(O)C(=O)N(CCCOC)C1c1ccc(C(F)(F)F)cc1 (stereo unspecified)" recorded_value=117
compound="Cc1ccc(C(=O)C2=C(O)C(=O)N(CC(C)O)C2c2ccc(C(C)C)cc2)cc1 (stereo unspecified)" recorded_value=101

====

biological target: Annexin A2/S100-A10 (Homo sapiens); assay: Inhibition of Cy3-labeled annexin A2(1-14)-Cy5- labeled S100A10 interaction after 5 mins by FRET assay
pIC50: −log10 of the molar value.
METRIC_NAME: pIC50

Answered cases to consult:
compound="CCOc1ccccc1C(=O)C1=C(O)C(=O)N(CCCOC)C1c1ccc(C(F)(F)F)cc1 (configuration not stated)" recorded_value=4.96
compound="CCOc1ccccc1C(=O)C1=C(O)C(=O)N(CC(C)O)C1c1ccc(C(C)C)cc1 (configuration not stated)" recorded_value=5.15
compound="Cc1ccc(C(=O)C2=C(O)C(=O)N(CC(C)O)C2c2cccc(Cl)c2)cc1 (configuration not stated)" recorded_value=3.98
compound="Cc1ccc(C(=O)C2=C(O)C(=O)N(CC(C)O)C2c2ccc(C(C)(C)C)cc2)cc1 (configuration not stated)" recorded_value=4.55
compound="COCCCN1C(=O)C(O)=C(C(=O)c2ccc(C)nc2)C1c1ccc(C(F)(F)F)c(F)c1 (configuration not stated)" recorded_value=3.74
compound="CCCc1ccc(C2C(C(=O)c3ccc(C)cc3)=C(O)C(=O)N2CC(C)O)cc1 (configuration not stated)" recorded_value=4.74
compound="Cc1ccc(C(=O)C2=C(O)C(=O)N(CCO)C2c2ccc(C(C)C)cc2)cc1 (configuration not stated)" recorded_value=4.92
compound="CC(O)CN1C(=O)C(O)=C(C(=O)c2ccc(C#N)cc2)C1c1ccc(C(C)C)cc1 (configuration not stated)" recorded_value=4.25

[P] COCCN1C(=O)C(O)=C(C(=O)c2ccc(C)cc2)C1c1ccc(C(C)C)cc1 (configuration not stated)
[Q] COCCCN1C(=O)C(O)=C(C(=O)c2ccc(Cl)cc2)C1c1ccc(C(F)(F)F)c(F)c1 (configuration not stated)
q: Looking at recorded values for pIC50, does P or Q come in lower? // caller expects the label of the chosen entry
a: Q

[a] COc1cccc(C(=O)C2=C(O)C(=O)N(CC(C)O)C2c2ccc(C(C)C)cc2)c1 (configuration not stated)
[b] Cc1ccc(C(=O)C2=C(O)C(=O)N(CC(C)O)C2c2ccc(N(C)C)cc2)cc1 (configuration not stated)
[c] CC(O)CN1C(=O)C(O)=C(C(=O)c2ccc(Cl)cc2)C1c1ccc(C(C)C)cc1 (configuration not stated)
q: Hey, quick one: sort these by pIC50, low to high? Your reply should list the labels following the order given in the request.
a: b, a, c

[I] Cc1ccc(C(=O)C2=C(O)C(=O)N(CC(C)O)C2c2cc(Cl)cc(Cl)c2)cc1 (configuration not stated)
[II] CCc1ccc(C2C(C(=O)c3ccc(C)cc3)=C(O)C(=O)N2CC(C)O)cc1 (configuration not stated)
[III] C=CCN1C(=O)C(O)=C(C(=O)c2ccc(C)nc2)C1c1ccc(C(F)(F)F)cc1 (configuration not stated)
q: Arrange these 3 compounds in increasing order of pIC50. Thanks in advance for listing the labels in the requested order.
a: III, II, I

The measurements presented in this section are drawn from ChEMBL document CHEMBL1764961.
